These measurements were taken from paper PMC12627862.

Listing: logD of selected compounds
Assay remarks: Lipophilicity of peptides, logP(oct/wat)
Assay type: physicochemical
Test context: shake-flask n-octanol/phosphate buffer, mutually saturated, shaken 1 hour at room temperature; read-out: Log P (Octanol/Water)
Starred links: 1 amine or outer side, 2 acyl side, 3 side chain; linkers in the order of their positions; H or OH if unused. Positions of bridges follow the written chain, without caps; N, C: chain ends. Non-standard residues stand in square brackets, D forms with d. Residues, ends and D or L forms follow the SMILES beside them. *: point of attachment. X2 = C[C@@](CCCCC=[*:3])(N[*:1])C(=O)[*:2]; Leu(4,5-dehydro) = C=C(C)C[C@H](N)C(=O)O; Oic = O=C(O)[C@@H]1C[C@@H]2CCCC[C@@H]2N1; d(tBuAla) = CC(C)(C)C[C@@H](N)C(=O)O; dVal(3-OH) = CC(C)(O)[C@@H](N)C(=O)O; tBuAla = CC(C)(C)C[C@H](N)C(=O)O; R5 = C=CCCC[C@@](C)(N)C(=O)O; S5 = C=CCCC[C@](C)(N)C(=O)O; X1 = O=C(CC(O)CN[*:1])[*:2]; 4Amb = NCc1ccc(C(=O)O)cc1; X3 = NCC(O)CC(=O)*
Measurement label: logD

Compound	Measurement label	Result
CC(C)(C)C[C@@H]1NC(=O)[C@](C)(NC(=O)c2ccc(CNC(=O)[C@H](N)C(C)(C)O)cc2)CCC/C=C\CCCC[C@@](C)(C(=O)N[C@H](CC(C)(C)C)C(=O)O)NC(=O)CC(O)CNC(=O)[C@@H]2C[C@@H]3CCCC[C@@H]3N2C1=O (some centres unmarked) [compound 108] (H-[dVal(3-OH)][4Amb][R5][tBuAla][Oic][X1][X2][d(tBuAla)]-OH; staple (Z) 3-7)	logD	0.46
C=C(C)C[C@@H]1NC(=O)[C@](C)(NC(=O)c2ccc(CNC(=O)CC(O)CN)cc2)CCC/C=C\CCC[C@@](C)(C(=O)N[C@H](CC(C)(C)C)C(=O)O)NC(=O)CC(O)CNC(=O)[C@@H]2C[C@@H]3CCCC[C@@H]3N2C1=O (some centres unmarked) [compound 107] ({X3-4Amb}-[R5][Leu(4,5-dehydro)][Oic][X1][S5][d(tBuAla)]-OH; staple (Z) 1-5)	logD	0.51

###

Assay remarks: Pharmacokinetic studies in rats
Test context: male, Crl:CD (SD), rat, in vivo, iv, 5 mg/kg
Starred links: 1 amine or outer side, 2 acyl side, 3 side chain; linkers in the order of their positions; H or OH if unused. Non-standard residues stand in square brackets, D forms with d. Residues, ends and D or L forms follow the SMILES beside them. ξ: configuration not given here. Oic = O=C(O)[C@@H]1C[C@@H]2CCCC[C@@H]2N1; GABOB(3R) = O=C(C[C@@H](O)CN[*:1])[*:2]; tBuAla = CC(C)(C)C[C@H](N)C(=O)O; ξVal(3-OH) = CC(C)(O)C(N)C(=O)O; 4Amb = NCc1ccc(C(=O)O)cc1

Compound	half-life (h)
CC(C)(C)C[C@@H]1NC(=O)C[C@@H](O)CNC(=O)[C@@H]2C[C@@H]3CCCC[C@@H]3N2C(=O)[C@H](CC(C)(C)C)NC(=O)c2ccc(cc2)CNC(=O)C(C(C)(C)O)NC(=O)[C@@H](Cc2ccccc2)NC1=O (stereo partly drawn) [compound 109] (cyclo([4Amb][tBuAla][Oic][GABOB(3R)][tBuAla][dF][ξVal(3-OH)]))	5.33
